Numbers sourced from PubChem BioAssay.

# PROCEDURE_DETAILS: budding yeast growth changes without added modifier – OD600, strain BY4716, 24 h, basal condition, primary screen (AID 1173)
# PROTOCOL_CONDITIONS: S. cerevisiae BY4716 growth, OD600, 24 h; higher = more signal, called active from +8 up or from −8 down
ENDPOINT: z-score

# COMPOUND, ENDPOINT, ASSAY_RESULT
records = [
    ("O=C(CS)NCCCCCCNC(=O)[C@H]1C[C@H]2C(=O)N3CCC[C@H]3C(=O)N2[C@H]1c1ccc(O)cc1", "z-score", 0.152),
    ("COc1ccc([Si](C)(C)[C@H]2[C@H](CC(=O)N3CCC[C@H]3CO)O[C@@]3(C(=O)N(c4ccccc4)c4ccccc43)[C@@H]2C)cc1", "z-score", -2.26),
    ("O=C(NCC(O)CO)[C@@]1(Cc2ccccc2)N=C(c2ccc(OCCCO)cc2)O[C@H]1c1ccccc1 (some centres undefined)", "z-score", -2.2),
    ("CN(C)CCCC[C@@H]1NC(=O)[C@H]2C[C@@H](C(=O)NCCCCCNC(=O)CS)[C@@H](c3ccc(O)cc3)N2C1=O", "z-score", -0.691),
]

* * *

# TGT: Left-right determination factor 2 (Homo sapiens)
# PROCEDURE_DETAILS: small molecules binding LEFTY2 protein – biochemical, small-molecule microarray, 635 nm fluorescence scan, primary screen (AID 1110)
# PROTOCOL_CONDITIONS: higher = more signal
ENDPOINT: composite z-score

# MOLECULE, TGT, ASSAY_RESULT
records = [
    ("O=C1OCCC/C=C\\[C@H]2OC34C=CCN(CCN5CCOCC5)C(=O)[C@H]3N(CCO)C(=O)[C@@H]4C12 (some centres undefined)", "Left-right determination factor 2 (Homo sapiens)", -0.416),
    ("CN(C)CCCC[C@@H]1NC(=O)[C@H]2C[C@@H](C(=O)NCCCCCNC(=O)CS)[C@@H](c3ccc(O)cc3)N2C1=O", "Left-right determination factor 2 (Homo sapiens)", -1.34),
    ("CC(C)C(CO)N1C(=O)[C@@H]2[C@H]3C(=O)OCC=C[C@H]3OC23C=CCN(c2ccc4ccccc4c2)C(=O)[C@@H]13 (some centres undefined)", "Left-right determination factor 2 (Homo sapiens)", -0.425),
    ("COc1ccc([Si](C)(C)[C@@H]2[C@@H](CCO)O[C@]3(C(=O)N(Cc4ccc(N5C(=O)c6cccc7cccc5c67)cc4)c4ccccc43)[C@H]2C)cc1", "Left-right determination factor 2 (Homo sapiens)", -0.983),
]

* * *

# PROCEDURE_DETAILS: basal CRE-LacZ reporter activity in PC12 – cell-based, unstimulated, primary screen (AID 1145)
# PROTOCOL_CONDITIONS: no forskolin, luminescence, 4.5 h, higher = more signal, called active from +8 up or from −8 down
The recorded z-score of each item maps onto one of these classes: lower level: < 0.05; middle level: ≥ 0.05 and < 1; upper level: ≥ 1

# COMPOUND, LABEL
data = [
    ("Cc1ccc(S[C@]2(C(=O)NCCCN(C)C)CC(=O)N(Cc3ccccc3)[C@@H]2c2ccc(CO)cc2)cc1", "lower level"),
    ("CC(C)(C)OC(=O)CC[C@@]1(C(=O)NCC(O)CO)N=C(c2ccc(OCCCO)cc2)O[C@@H]1c1ccccc1 (some centres undefined)", "upper level"),
    ("O=C1O[C@@H](c2ccccc2)[C@@H](c2ccccc2)N2[C@@H](c3ccccc3OCCO)[C@]3(C(=O)Nc4ccc(C#CC5(O)CCCCCC5)cc43)[C@@H](C(=O)NC[C@H](O)c3ccccc3)[C@H]12", "middle level"),
    ("CO[C@H]1O[C@H](CO)[C@@H](OC(=O)Nc2ccc3c(c2)OCO3)[C@H](OC(=O)Nc2ccc3c(c2)OCO3)[C@H]1OC(=O)Nc1ccc2c(c1)OCO2", "upper level"),
    ("CCOC1=C2C(c3ccc(C)cc3)N(S(=O)(=O)c3ccc(C)cc3)CC2n2c(=O)n(-c3ccccc3)c(=O)n2C1 (centres undefined)", "lower level"),
    ("C=C(C(=O)CC[C@@H](OC(C)=O)c1ccc(OCCO)cc1)C(C)C", "upper level"),
    ("CCOC(=O)C[C@H]1[C@H](OC(=O)c2cc3ccccc3oc2=O)[C@@H](NC(=O)c2ccc3ccccc3c2)c2cc(OCCCO)ccc2N1C(=O)c1ccccc1", "upper level"),
    ("CCCNC(=O)[C@@]1(C)c2ccccc2C(=O)N(C(C)C)[C@H]1c1ccc(CO)cc1", "lower level"),
    ("NC(=O)[C@@]1(CCS(=O)(=O)c2ccccc2)N=C(c2ccc(OCCCO)cc2)O[C@H]1c1ccccc1", "lower level"),
    ("[N-]=[N+]=Nc1ccccc1[C@@H]1OC(c2ccc(OCCCO)cc2)=N[C@]1(CCS(=O)(=O)c1ccccc1)C(=O)O", "middle level"),
    ("C=CCN1C(=O)[C@]2(Cc3ccccc31)N=C(c1ccc(OCCCO)cc1)O[C@@H]2c1ccccc1", "lower level"),
    ("C=C(CCCC)/C(=C/C[C@H](OC(C)=O)c1ccc(CO)o1)c1cc(C(=O)OC)ccc1OC", "middle level"),
    ("COc1ccc(C#Cc2ccc3c(c2)[C@]2(C(=O)N3)[C@H](c3ccc(OCCO)cc3)N3[C@H](c4ccccc4)[C@H](c4ccccc4)OC(=O)[C@H]3[C@@H]2C(=O)Nc2nc3ccccc3s2)cc1", "middle level"),
    ("COc1ccc([Si](C)(C)[C@@H]2[C@@H](CCO)O[C@]3(C(=O)N(Cc4cccc(N(C=O)c5ccccc5)c4)c4ccccc43)[C@H]2C)cc1", "upper level"),
]

* * *

Recorded z-score for the following molecules
# PROCEDURE_DETAILS: changes in parasitized red cell lysis, either direction – P. falciparum Indochina, OD700, 3 h, PSAC antagonist project, primary screen (AID 1156)
# PROTOCOL_CONDITIONS: P. falciparum-infected erythrocytes, osmotic lysis, higher = more signal, called active from +8 up or from −8 down
The source made the active and inactive calls.

# MOLECULE, z-score
records = [
    ("[N-]=[N+]=Nc1ccccc1[C@H]1OC(c2ccc(OCCCO)cc2)=N[C@@]1(CCS(=O)(=O)c1ccccc1)C(=O)N1CCOCC1", "1.88 (inactive)"),
    ("C=C(CCCC)/C(=C/C[C@@H](OC(=O)c1ccncc1)c1ccc(CO)o1)c1cc(C(=O)OC)ccc1OC", "2.84 (inactive)"),
    ("CO[C@H]1O[C@H](CO)[C@@H](OC(=O)Nc2ccc(C(F)(F)F)cc2)[C@H](OC(=O)Nc2ccccc2)[C@@H]1OC(=O)Nc1ccccc1", "-0.886 (inactive)"),
    ("COC(=O)[C@@]1(Cc2ccc(OC)cc2)[C@H]2c3cc(C(=O)N4CCCC4)n(CCc4ccccn4)c3C[C@H]2CN1C(=O)c1ccccc1", "0.924 (inactive)"),
    ("C=C(C(=O)CC[C@@H](OC(C)=O)c1ccc(OCCO)cc1)C(C)C", "0.652 (inactive)"),
    ("Cc1ccc(S[C@]2(C(=O)NCCCN(C)C)CC(=O)N(C(C)C)[C@@H]2c2ccc(CO)cc2I)cc1", "1.38 (inactive)"),
    ("COCCCNC(=O)[C@]1(Cc2ccccc2N=[N+]=[N-])N=C(c2ccc(OCCCO)cc2)O[C@@H]1c1ccccc1CN=[N+]=[N-]", "3.17 (inactive)"),
    ("CCCC[C@@H]1C[C@H]1[C@@H](NC(=O)c1ccco1)c1ccccc1", "0.747 (inactive)"),
    ("O=C1O[C@@H](c2ccccc2)[C@@H](c2ccccc2)N2[C@@H](c3ccc(O)cc3)[C@]3(C(=O)Nc4ccc(C#CCCO)cc43)[C@@H](C(=O)O)[C@H]12", "1.22 (inactive)"),
    ("Cc1c(NC(=O)/C(C#N)=C/C=C/c2ccccc2)c(=O)n(-c2ccccc2)n1C", "0.0643 (inactive)"),
    ("O=C(NCCN1CCOCC1)[C@@H]1c2ccccc2C(=O)N(Cc2cc(F)cc(C(F)(F)F)c2)[C@H]1c1ccc(CO)cc1", "0.884 (inactive)"),
    ("O=C1C2C=CC(C(O)c3ccccn3)N(Nc3ccccc3F)C2C(=O)N1c1ccccc1 (centres undefined)", "0.42 (inactive)"),
    ("C=CCOC(=O)[C@H]1[C@@H]2C(=O)O[C@@H](c3ccccc3)[C@@H](c3ccccc3)N2[C@@H](c2ccc(OCCOC(=O)[C@@H]3C[C@@H]4C(=O)NCC(=O)N4[C@@H]3c3ccc(O)cc3)cc2)[C@]12C(=O)Nc1ccc(I)cc12", "1.49 (inactive)"),
    ("C=C(CCCC)/C(=C/C[C@H](OC(C)=O)c1ccc(CO)o1)c1cc(C(=O)OC)ccc1OC", "1.62 (inactive)"),
    ("C=CC[C@@]1(C(N)=O)N=C(c2ccc(OCCCO)cc2)O[C@@H]1c1ccccc1N=[N+]=[N-]", "4.04 (inactive)"),
    ("O=C(NCC(O)CO)[C@@]1(Cc2ccccc2)COC(c2ccc(OCCCO)cc2)=N1 (some centres undefined)", "2.87 (inactive)"),
    ("CS(=O)(=O)CCOC(=O)C1=CC(c2ccc(CO)cc2)=CC(c2cccs2)N(Cc2cccc(OC(F)(F)F)c2)C=C1C(=O)OCCS(C)(=O)=O (centres undefined)", "0.869 (inactive)"),
    ("COC(=O)[C@@]1(Cc2ccccc2)[C@H]2c3cc(C(=O)N(C)C)n(Cc4cc(F)c(F)c(F)c4)c3C[C@H]2CN1C(=O)c1ccccc1", "0.893 (inactive)"),
    ("CC(C)C(O)C1C=CC2C(=O)N(C)C(=O)C2N1N1CCCCC1 (centres undefined)", "0.0667 (inactive)"),
    ("COc1ccc(CCNC(=O)[C@@]2(C)c3ccccc3C(=O)N(Cc3ccccc3)[C@H]2c2ccc(CO)cc2)cc1", "0.474 (inactive)"),
    ("C=CCC(OC(C)=O)[C@@H]1[C@@H](N(Cc2ccc(-c3ccccc3)cc2)C(=O)c2ccc(C)cc2)c2cc(OCCCO)ccc2N1C(=O)Cc1ccc(OC)cc1 (some centres undefined)", "-0.774 (inactive)"),
    ("COc1ccc([Si](C)(C)[C@H]2[C@H](CC(=O)N(CCO)Cc3ccccc3)O[C@@]3(C(=O)N(Cc4cccc(N5C(=O)c6cccc7cccc5c67)c4)c4ccccc43)[C@@H]2C)cc1", "-0.924 (inactive)"),
    ("COc1cc(NN2C(C(O)c3ccccc3)C=CC3C(=O)N(c4ccccc4)C(=O)C32)cc(OC)c1OC (centres undefined)", "0.86 (inactive)"),
    ("COC(=O)[C@@]1(Cc2ccc(F)cc2)[C@H]2c3cc(C(=O)N(C)C)n(CCCNc4ccc(C(F)(F)F)cc4Cl)c3C[C@H]2CN1C(=O)c1ccccc1", "0.277 (inactive)"),
    ("Cc1ccc(S[C@]2(C(=O)NCCCN(C)C)CC(=O)N(Cc3ccccc3)[C@@H]2c2ccc(CO)cc2)cc1", "1.5 (inactive)"),
    ("CCCCCN1CC=CC23O[C@@H]4C=CCCOC(=O)C4[C@H]2C(=O)N(CCCO)[C@@H]3C1=O (some centres undefined)", "1.17 (inactive)"),
    ("CC(C)(C)OC(=O)CC[C@@]1(C(N)=O)N=C(c2ccc(OCCCO)cc2)O[C@@H]1c1ccccc1N=[N+]=[N-]", "2.05 (inactive)"),
    ("O=C1C2C=CC(C(O)c3cccc4ccccc34)N(n3cnnc3)C2C(=O)N1Cc1ccccc1 (centres undefined)", "0.282 (inactive)"),
    ("COc1ccc([Si](C)(C)[C@@H]2[C@@H](CCO)O[C@]3(C(=O)N(Cc4cccc(N(C=O)c5ccccc5)c4)c4ccccc43)[C@H]2C)cc1", "2.32 (inactive)"),
]
